Values compiled from ChEMBL document CHEMBL4270600.

- Test system: HT-22
- test: Induction of mitochondrial energy production impairment in mouse HT22 cells assessed as ATP production at 5 uM after 7 hrs by luciferase reporter gene assay relative to control
- Format: cell-based
- conditions: ht-22, 7 h
Listing: Activity of selected compounds

# compound, measured-on, Activity
rows = [
    ("CC(C)(C)CC(C)(C)NC(=O)Nc1nccnc1OCc1ccccc1", "HT-22", "86%"),
    ("O=C(NCCN1CCNCC1)Nc1nccnc1OCc1ccccc1Cl", "HT-22", "70%"),
    ("O=C(Nc1nccnc1OCc1ccccc1)NC1CCCCCC1", "HT-22", "103.4%"),
    ("CN1CCN(CCNC(=O)Nc2nccnc2OCc2cccc(Cl)c2)CC1", "HT-22", "96.1%"),
    ("O=C(Nc1ccc(Cl)c(Cl)c1)Nc1nccnc1OCc1ccccc1", "HT-22", "148.6%"),
    ("CC(C)(C)CC(C)(C)NC(=O)Nc1nccnc1OCc1cccc(F)c1", "HT-22", "98.9%"),
    ("CC(C)(C)NC(=O)Nc1nccnc1OCc1ccccc1Cl", "HT-22", "55.3%"),
    ("O=C(Nc1cccc(Cl)c1)Nc1nccnc1OCc1cccc(Cl)c1", "HT-22", "85.4%"),
    ("O=C(NCc1ccccc1)Nc1nccnc1OCc1ccccc1Cl", "HT-22", "96.9%"),
    ("NC(=O)CN1CCCC1=O [PIRACETAM]", "HT-22", "88%"),
    ("CN1CCN(CCNC(=O)Nc2nccnc2OCc2ccccc2)CC1", "HT-22", "97.2%"),
    ("CC(C)(C)CC(C)(C)NC(=O)Nc1nccnc1OCc1ccc(Cl)cc1", "HT-22", "85.7%"),
    ("O=C(Nc1ccccc1)Nc1nccnc1OCc1ccccc1Cl", "HT-22", "66.9%"),
]
